test system: Mus musculus; assay: Toxicity in Swiss albino Mus musculus (mouse) assessed as weight loss up to 100 mg/kg, po measured up to 24 hr relative to control; type: organism-based; parameters: dose 100 mg/kg, route oral; conditions: in vivo
VALUE TYPE: Activity

compound=C[C@H]1[C@H](O)CC[C@@H]2[C@]1(C)CC[C@H]1[C@@]2(C)CC[C@@]2(C)[C@H]3CC(C)(C)CC[C@]3(C)CC[C@]12C obs_value=Non-toxic
compound="CC(=O)O[C@H]1CC[C@@H]2[C@](C)(CC[C@H]3[C@@]2(C)CC[C@@]2(C)[C@H]4CC(C)(C)CC[C@]4(C)CC[C@]32C)[C@H]1C [EPIFRIEDELANYL ACETATE]" obs_value=Non-toxic
compound="CCCCCCCCCCCCC(O)COS(=O)(=O)[O-].[Na+] (stereo not drawn)" obs_value=Non-toxic
